# Target entity: I338G v-Src (Rous sarcoma virus subgroup A, UniProt P00524, DEL77-225/I338G)
# Construct: catalytic domain of the target kinase, I338G v-Src, which was expressed in bacteria and purified as a glutathione-S-transferase (GST) fusion protein; made in house; host or cells: E. coli DH5a, pGEX-KT
# Method notes: biochemical
# Type: biochemical
Value type: pIC50
Numbers only, as −log10 of the molar value.

Chem smiles	pIC50
CC(C)(C)n1nc(-c2ccccc2)c2c(N)ncnc21	6.37
CC(C)(C)n1nc(-c2cccc3ccccc23)c2c(N)ncnc21	8.82

State the recorded pIC50 for this entry: CC(C)(C)n1nc(Cc2cccc3ccccc23)c2c(N)ncnc21
8.38

----------
# Target entity: Cdc28·MBP-C1b2 (Saccharomyces cerevisiae, UniProt P00546)
# Construct: His6 (C); made in house; host or cells: Sf9 insect cells, baculovirus, co-infected with Cak1-HA3 (Cdc28-His6); bacteria (MBP-Clb2)
# Method notes: 1-NM-PP1 IC50, Histone H1 phosphorylation
# Type: biochemical
# Test settings: text b289; read-out: IC50
pIC50: −log10 of the molar value.
Value type: pIC50

State the recorded pIC50 for this entry: CC(C)(C)n1nc(Cc2cccc3ccccc23)c2c(N)ncnc21 [Compound 11]
< 4.30

----------
Here's what we have: IC50 numbers for UniProt P06241.
Sequence (P06241 1-534 isoform P06241-2): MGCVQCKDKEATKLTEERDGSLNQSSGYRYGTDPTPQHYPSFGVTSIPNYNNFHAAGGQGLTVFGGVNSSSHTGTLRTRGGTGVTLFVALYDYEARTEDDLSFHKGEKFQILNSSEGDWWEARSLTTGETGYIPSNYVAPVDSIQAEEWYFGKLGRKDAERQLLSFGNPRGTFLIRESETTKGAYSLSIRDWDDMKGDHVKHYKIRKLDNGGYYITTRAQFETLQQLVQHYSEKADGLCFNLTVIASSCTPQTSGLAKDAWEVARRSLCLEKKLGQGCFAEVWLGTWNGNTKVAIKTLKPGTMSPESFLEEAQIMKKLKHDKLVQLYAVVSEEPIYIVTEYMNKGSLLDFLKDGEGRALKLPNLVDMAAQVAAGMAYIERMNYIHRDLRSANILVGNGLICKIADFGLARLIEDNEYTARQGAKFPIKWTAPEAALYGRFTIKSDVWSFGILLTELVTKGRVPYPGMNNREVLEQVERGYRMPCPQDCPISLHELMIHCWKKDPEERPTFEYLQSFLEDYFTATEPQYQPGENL

Study these solved cases before continuing.
Compound	Target entity	Result
CC(C)(C)n1nc(COc2cccc3ccccc23)c2c(N)ncnc21 [Compound 6i]	UniProt P06241	> 300 µM
CC(C)(C)n1nc(Cc2cccc3ccccc23)c2c(N)ncnc21 [Compound 6h]	UniProt P06241	1.1 µM

State the recorded IC50 for this entry: CC(C)(C)n1nc(Cc2ccc3ccccc3c2)c2c(N)ncnc21 [Compound 6j]
> 300 µM

----------
# Target entity: WT v-Src (Rous sarcoma virus subgroup A, UniProt P00524, DEL77-225)
# Construct: glutathione-S-transferase fusion proteins of wild type v-Src catalytic domain, I338G v-Src SH1, and WT Fyn into the pGEX-KT plasmid; GST (N); made in house; host or cells: E. coli DH5a, pGEX-KT
# Method notes: biochemical
# Assay type: biochemical
# Test settings: Table 3; read-out: vSrc
Provide the recorded pIC50 for the entries that follow.
Give bare numbers, as −log10 of the molar value.

Okay, here is my list. What is pIC50 for each of these?
1. CC(C)(C)n1nc(-c2cccc(OCc3c(Cl)cccc3Cl)c2)c2c(N)ncnc21 [Compound 6e]
2. CC(C)(C)c1ccc(-c2nn(C(C)(C)C)c3ncnc(N)c23)cc1 [Compound 6g]

[3.52, 4.19]

These data points were gathered from patent EP1321467A2.
